Values from patent US20260062422A1

- Test system: T47D cells
- assay.comment: Cellular growth inhibition assay for T47D cells, CellTiter-Glo
- Format: cell-based, human
- assay.setup: 72 hours treatment, CellTiter-Glo 2.0 cell viability
quantity: GI50

compound	target.entity	quantity	measurement
Cc1sc2c(c1C)C(c1ccc(C3CC3C3CC4(CCN(c5ncc(C(=O)N[C@H]6C(C)(C)[C@H](Oc7ccc(C#N)c(Cl)c7)C6(C)C)cn5)CC4)C3)cc1)=N[C@@H](Cc1ncco1)c1nnc(C)n1-2 (stereo partly drawn)	T47D cells	GI50	< 0.5 µM
Cc1sc2c(c1C)C(c1ccc([C@H]3C[C@@H]3CC3CCCN(c4ncc(C(=O)N[C@H]5C(C)(C)[C@H](Oc6ccc(C#N)c(Cl)c6)C5(C)C)cn4)C3)cc1)=N[C@@H](Cc1ncco1)c1nnc(C)n1-2 (stereo partly drawn) [Compound I-492]	T47D cells	GI50	> 3 µM
Cc1sc2c(c1C)C(c1ccc(CC3CC4(CCN(c5ncc(C(=O)N[C@H]6C(C)(C)[C@H](Oc7ccc(C#N)c(Cl)c7)C6(C)C)cn5)CC4)C3)cc1)=N[C@@H](C)c1nnc(C)n1-2	T47D cells	GI50	< 0.5 µM
Cc1sc2c(c1C)C(c1ccc(C3CC3C3CC4(CCN(c5cnc(C(=O)N[C@H]6C(C)(C)[C@H](Oc7ccc(C#N)c(Cl)c7)C6(C)C)cn5)CC4)C3)cc1)=NC(Cc1ncco1)c1nnc(C)n1-2 (stereo partly drawn) [Compound I-539]	T47D cells	GI50	> 3 µM
Cc1sc2c(c1C)C(c1ccc(N3CC(C4CCCN(c5ncc(C(=O)N[C@H]6C(C)(C)[C@H](Oc7ccc(C#N)c(Cl)c7)C6(C)C)cn5)C4)C3)cc1)=N[C@@H](C)c1nnc(C)n1-2 (stereo partly drawn) [Compound I-474]	T47D cells	GI50	< 0.5 µM
CC[C@@H]1N=C(c2ccc(CC3CCC4(C3)CN(c3ncc(C(=O)N[C@H]5C(C)(C)[C@H](Oc6ccc(C#N)c(Cl)c6)C5(C)C)cn3)CCO4)cc2)c2c(sc(C)c2C)-n2c(C)nnc21 (stereo partly drawn) [Compound I-613]	T47D cells	GI50	0.5 to 1.5 µM

If you can, please state the reported GI50 value of Cc1sc2c(c1C)C(c1ccc([C@H]3C[C@@H]3CC3CCCN(c4ncc(C(=O)N[C@H]5C(C)(C)[C@H](Oc6ccc(C#N)c(Cl)c6)C5(C)C)cn4)C3)cc1)=NC(Cc1ncco1)c1nnc(C)n1-2 (stereo partly drawn) [Compound I-491] .
> 3 µM

Consider the compound shown here: "Cc1sc2c(c1C)C(c1ccc(C(C)(C)N3CC4(CCN(c5ncc(C(=O)N[C@H]6C(C)(C)[C@H](Oc7ccc(C#N)c(Cl)c7)C6(C)C)cn5)CC4)C3)cc1)=N[C@@H](Cc1ncco1)c1nnc(C)n1-2" What is its recorded GI50?
> 3 µM

Sample Cc1sc2c(c1C)C(c1ccc(N3CC(C4CCCC(Cc5ncc(C(=O)N[C@H]6C(C)(C)[C@H](Oc7ccc(C#N)c(Cl)c7)C6(C)C)cn5)C4)C3)cc1)=N[C@@H](Cc1ncco1)c1nnc(C)n1-2 (stereo partly drawn) [Compound I-580] — what was its GI50?
< 0.5 µM

----------
- System: T-Rex 293 cell line SC3 cells lacking increased expression of androgen receptor protein
- assay.comment: Cellular growth inhibition, T-Rex 293 SC3 cells without doxycycline, CellTiter-Glo
- Type: cell-based
- assay.setup: 72 h, T-Rex 293 SC3 cells not exposed to doxycycline, CellTiter-Glo 2.0
# GI50 annotations

molecule	GI50
Cc1sc2c(c1C)C(c1ccc(N3CCC[C@H](C(=O)N4CCC[C@H](c5ncc(C(=O)N[C@H]6C(C)(C)[C@H](Oc7ccc(C#N)c(Cl)c7)C6(C)C)cn5)C4)C3)cc1)=N[C@H](Cc1ncco1)c1nnc(C)n1-2 [Compound I-338]	> 3000 nM

API: the following record is the query input.
May I ask what GI50 has been recorded for Cc1sc2c(c1C)C(c1ccc(OC[C@H]3CCCN(c4ncc(C(=O)N[C@H]5C(C)(C)[C@H](Oc6ccc(C#N)c(Cl)c6)C5(C)C)cn4)C3)cc1)=N[C@@H](Cc1ncco1)c1nnc(C)n1-2 [Compound I-255] ?
< 500 nM

----------
- Test system: T-Rex 293 cell line SC3 cells lacking increased expression of androgen receptor protein
- assay.comment: Cellular growth inhibition, T-Rex 293 SC3 cells without doxycycline, CellTiter-Glo
- Type: cell-based
- assay.setup: 72 h, T-Rex 293 SC3 cells not exposed to doxycycline, CellTiter-Glo 2.0
quantity: GI50

compound	measurement
Cc1sc2c(c1C)C(c1ccc(C3CC(N4CCN(c5cnc(C(=O)N[C@H]6C(C)(C)[C@H](Oc7ccc(C#N)c(Cl)c7)C6(C)C)cn5)CC4)C3)cc1)=N[C@@H](C)c1nnc(C)n1-2 (stereo partly drawn)	500 to 1500 nM
Cc1sc2c(c1C)C(c1ccc(C(=O)N3CC[C@@]4(CCCN(c5ncc(C(=O)N[C@H]6C(C)(C)[C@H](Oc7ccc(C#N)c(Cl)c7)C6(C)C)cn5)C4)C3)cc1)=N[C@H](Cc1ncco1)c1nnc(C)n1-2	> 3000 nM
Cc1sc2c(c1C)C(c1ccc(CC3CC4(CCN(c5ccc(C(=O)N[C@H]6C(C)(C)[C@H](Oc7ccc(C#N)c(Cl)c7)C6(C)C)cn5)CC4)C3)cc1)=N[C@@H](Cc1ncco1)c1nnc(C)n1-2	< 500 nM
Cc1sc2c(c1C)C(c1ccc(O[C@H]3COC4(CCN(c5ncc(C(=O)N[C@H]6C(C)(C)[C@H](Oc7ccc(C#N)c(Cl)c7)C6(C)C)cn5)C4)C3)cc1)=N[C@@H](Cc1ncco1)c1nnc(C)n1-2 (stereo partly drawn)	< 500 nM
Cc1sc2c(c1C)C(c1ccc(Cl)cc1)=N[C@@H](CC(=O)NCCCCN1CCN(CC3CCN(c4ncc(C(=O)N[C@H]5C(C)(C)[C@H](Oc6ccc(C#N)c(Cl)c6)C5(C)C)cn4)CC3)CC1)c1nnc(C)n1-2	500 to 1500 nM
Cc1sc2c(c1C)C(c1ccc(N3CCC[C@@H](CNc4ncc(C(=O)N[C@H]5C(C)(C)[C@H](Oc6ccc(C#N)c(Cl)c6)C5(C)C)cn4)C3)cc1)=NC(Cc1ncco1)c1nnc(C)n1-2 (stereo partly drawn)	500 to 1500 nM
Cc1sc2c(c1C)C(c1ccc(O[C@@H]3CO[C@@]4(CCCN(c5ncc(C(=O)N[C@H]6C(C)(C)[C@H](Oc7ccc(C#N)c(Cl)c7)C6(C)C)cn5)C4)C3)cc1)=N[C@@H](Cc1ncco1)c1nnc(C)n1-2	< 500 nM
Cc1sc2c(c1C)C(c1ccc(N3CCC(CNC(=O)c4ncc(C(=O)N[C@H]5C(C)(C)[C@H](Oc6ccc(C#N)c(Cl)c6)C5(C)C)cn4)CC3)cc1)C[C@@H](Cc1ncco1)c1nnc(C)n1-2 (stereo partly drawn)	> 3000 nM
Cc1sc2c(c1C)C(c1ccc(CC[C@H]3CC[C@@]4(CCCN(c5ncc(C(=O)N[C@H]6C(C)(C)[C@H](Oc7ccc(C#N)c(Cl)c7)C6(C)C)cn5)C4)C3)cc1)=N[C@@H](Cc1ncco1)c1nnc(C)n1-2	> 3000 nM
Cc1sc2c(c1C)C(c1ccc(CN3CC(=O)N4CC(c5ncc(C(=O)N[C@H]6C(C)(C)[C@H](Oc7ccc(C#N)c(Cl)c7)C6(C)C)cn5)C[C@H]4C3=O)cc1)=N[C@@H](Cc1ncco1)c1nnc(C)n1-2 (stereo partly drawn)	> 3000 nM

What value of GI50 has been recorded for this entry: Cc1sc2c(c1C)C(c1ccc(N3CCN(c4ncc(C(=O)N[C@H]5C(C)(C)[C@H](Oc6ccc(C#N)c(Cl)c6)C5(C)C)cn4)CC(F)(F)C3)cc1)=NC(Cc1ncco1)c1nnc(C)n1-2 (stereo partly drawn)
> 3000 nM

Give the measured GI50 of "Cc1sc2c(c1C)C(c1ccc(C#C[C@H]3C[C@@]4(CCCN(c5ncc(C(=O)N[C@H]6C(C)(C)[C@H](Oc7ccc(C#N)c(Cl)c7)C6(C)C)cn5)C4)C3)cc1)=N[C@@H](C)c1nnc(C)n1-2" .
> 3000 nM

Please give the measured GI50 for this compound: "Cc1sc2c(c1C)C(c1ccc(N3CCC(C4CCN(c5cnc(C(=O)N[C@H]6C(C)(C)[C@H](Oc7ccc(C#N)c(Cl)c7)C6(C)C)cn5)CC4)CC3)cc1)=N[C@@H](C)c1nnc(C)n1-2"
> 3000 nM

Which GI50 reading was recorded for the compound CCNC(=O)C[C@@H]1N=C(c2ccc(OCCCCOC3CCN(c4ncc(C(=O)NC5C(C)(C)C(Oc6ccc(C#N)c(Cl)c6)C5(C)C)cn4)CC3)cc2)c2c(sc(C)c2C)-n2c(C)nnc21 (stereo partly drawn) ?
< 500 nM

So what's the measured GI50 for this one? "Cc1sc2c(c1C)C(c1ccc(CCCOC3CCN(c4ncc(C(=O)N[C@H]5C(C)(C)[C@H](Oc6ccc(C#N)c(Cl)c6)C5(C)C)cn4)CC3)cc1)=N[C@@H](CC(=O)NC1CC1)c1nnc(C)n1-2"
> 3000 nM

# get_value(readout='GI50', item= "Cc1sc2c(c1C)C(c1ccc(OC3CC4(CCN(c5ccc(C(=O)N[C@H]6C(C)(C)[C@H](Oc7ccc(C#N)c(Cl)c7)C6(C)C)cn5)CC4)C3)cc1)=N[C@@H](Cc1ncco1)c1nnc(C)n1-2" )
> 3000 nM

Given the compound "CNc1ccc2c(n1)C(c1ccc(OC3CC4(CCCN(c5ncc(C(=O)N[C@H]6C(C)(C)[C@H](Oc7ccc(C#N)c(Cl)c7)C6(C)C)cn5)C4)C3)cc1)=NCc1onc(C)c1-2" , what is its reported GI50?
> 3000 nM

Return reported GI50; argument: "Cc1sc2c(c1C)C(c1ccc(N3CCC(CNC(=O)c4ncc(C(=O)N[C@H]5C(C)(C)[C@H](Oc6ccc(C#N)c(Cl)c6)C5(C)C)cn4)CC3)cc1)=N[C@H](Cc1ncco1)c1nnc(C)n1-2"
500 to 1500 nM
